Assay: in vivo
Conditions: Balb/c, mouse, po, 20 mg/kg
REPORTED PROPERTY: Tmax (min)
Answers are plain numbers, in min.

Tmax reading for C[C@@H]1COCCN1c1cc(C2([S@](C)(=N)=O)CC2)nc(-c2cc[nH]c3nccc2-3)n1 : 15

###

Assay: Extensive tissue distribution study in CT26 tumor-bearing mice
Type: in vivo, Balb/c mice
Settings: Balb/c, mouse; 75 mg/kg PO-ext (tissue distribution study); plasma; read-out: Cmax
REPORTED PROPERTY: Cmax (ng/mL)
Numbers only, in ng/mL.

Cmax reading for C[C@@H]1COCCN1c1cc(C2([S@](C)(=N)=O)CC2)nc(-c2cc[nH]c3nccc2-3)n1 : 14100

###

Assay: Extensive tissue distribution study in CT26 tumor-bearing mice
Assay type: in vivo, Balb/c mice
Conditions: Balb/c, mouse, spleen / plasma, oral, 75 mg/kg, 75 mg/kg PO; Spleen to plasma AUC; read-out: Partition Coefficient
REPORTED PROPERTY: Kp
Answers are plain numbers.

Kp reading for C[C@@H]1COCCN1c1cc(C2([S@](C)(=N)=O)CC2)nc(-c2cc[nH]c3nccc2-3)n1 : 0.891

###

Assay: Extensive tissue distribution study in CT26 tumor-bearing mice
Type: in vivo, Balb/c mice
Settings: Balb/c, mouse; 75 mg/kg PO; Non-draining Lymph Node; read-out: Tmax (converted)
Method: Mice were injected subcutaneously on the right flank with 1x10^6 CT26 cells, a murine colorectal carcinoma cell line from BALB/c mice,obtained from ATCC (Manassas, VA). […] Implantation and tumor growth were monitored twice weekly with a digital caliper. […] For tissue and tumor analysis, samples were homogenized with 3 parts PBS (v/g) and further diluted with control plasma and concentrations determined from calibration curves prepared in control plasma.
REPORTED PROPERTY: Tmax (min)
Numbers only, in min.

Tmax reading for C[C@@H]1COCCN1c1cc(C2([S@](C)(=N)=O)CC2)nc(-c2cc[nH]c3nccc2-3)n1 : 15

###

Assay: in vivo
Conditions: Balb/c, mouse, po, 2 mg/kg
REPORTED PROPERTY: bioavailability (%)
Answers are plain numbers, in %.

bioavailability reading for C[C@@H]1COCCN1c1cc(C2([S@](C)(=N)=O)CC2)nc(-c2cc[nH]c3nccc2-3)n1 : 45.7

###

Test: Extensive tissue distribution study in CT26 tumor-bearing mice
Format: in vivo, Balb/c mice
Conditions: Balb/c, mouse, kidney / plasma, oral, 75 mg/kg, 75 mg/kg PO; Kidneys to plasma AUC; read-out: Partition Coefficient
REPORTED PROPERTY: Kp
One number for each entry.

Kp reading for C[C@@H]1COCCN1c1cc(C2([S@](C)(=N)=O)CC2)nc(-c2cc[nH]c3nccc2-3)n1 : 2.77

###

Experiment: in vivo
Details: Balb/c, mouse, po, 2 mg/kg
REPORTED PROPERTY: half-life (min)
Answers are plain numbers, in min.

half-life reading for C[C@@H]1COCCN1c1cc(C2([S@](C)(=N)=O)CC2)nc(-c2cc[nH]c3nccc2-3)n1 [AZD6738] : 104

###

Test: in vivo
Details: Balb/c, mouse, po, 7.5 mg/kg
REPORTED PROPERTY: CL renal (mL/min/kg)
Answers are plain numbers, in mL/min/kg.

CL renal reading for C[C@@H]1COCCN1c1cc(C2([S@](C)(=N)=O)CC2)nc(-c2cc[nH]c3nccc2-3)n1 : 1.88

###

Test: Extensive tissue distribution study in CT26 tumor-bearing mice
Format: in vivo, Balb/c mice
Details: Balb/c, mouse; 75 mg/kg PO; Thymus; read-out: Tmax (converted)
REPORTED PROPERTY: Tmax (min)
Numbers only, in min.

Tmax reading for C[C@@H]1COCCN1c1cc(C2([S@](C)(=N)=O)CC2)nc(-c2cc[nH]c3nccc2-3)n1 : 5

###

Experiment: Extensive tissue distribution study in CT26 tumor-bearing mice
Assay type: in vivo, Balb/c mice
Conditions: Balb/c, mouse; 75 mg/kg PO-ext; plasma
REPORTED PROPERTY: half-life
Please don't drop the unit; write it after the number.

half-life reading for C[C@@H]1COCCN1c1cc(C2([S@](C)(=N)=O)CC2)nc(-c2cc[nH]c3nccc2-3)n1 [AZD6738] : 1.75 h

###

Experiment: in vivo
Conditions: Balb/c, mouse, po, 7.5 mg/kg
REPORTED PROPERTY: Tmax (min)
Numbers only, in min.

Tmax reading for C[C@@H]1COCCN1c1cc(C2([S@](C)(=N)=O)CC2)nc(-c2cc[nH]c3nccc2-3)n1 [AZD6738] : 15

###

Experiment: Extensive tissue distribution study in CT26 tumor-bearing mice
Format: in vivo, Balb/c mice
Conditions: Balb/c, mouse; 75 mg/kg PO; Draining Lymph Node; read-out: Tmax (converted)
REPORTED PROPERTY: Tmax (min)
One number for each entry, in min.

Tmax reading for C[C@@H]1COCCN1c1cc(C2([S@](C)(=N)=O)CC2)nc(-c2cc[nH]c3nccc2-3)n1 [AZD6738] : 15

###

Test: Extensive tissue distribution study in CT26 tumor-bearing mice
Assay type: in vivo, Balb/c mice
Conditions: Balb/c, mouse; 75 mg/kg PO; Liver; read-out: Tmax (converted)
REPORTED PROPERTY: Tmax (min)
One number for each entry, in min.

Tmax reading for C[C@@H]1COCCN1c1cc(C2([S@](C)(=N)=O)CC2)nc(-c2cc[nH]c3nccc2-3)n1 : 15

###

Assay: in vivo
Details: Balb/c, mouse, iv, 10 mg/kg
REPORTED PROPERTY: half-life (h)
One number for each entry, in h.

half-life reading for C[C@@H]1COCCN1c1cc(C2([S@](C)(=N)=O)CC2)nc(-c2cc[nH]c3nccc2-3)n1 : 1.64

###

Assay: in vivo
Conditions: Balb/c, mouse, po, 2 mg/kg
REPORTED PROPERTY: CL renal (mL/min/kg)
One number for each entry, in mL/min/kg.

CL renal reading for C[C@@H]1COCCN1c1cc(C2([S@](C)(=N)=O)CC2)nc(-c2cc[nH]c3nccc2-3)n1 [AZD6738] : 1.97

###

Test: Extensive tissue distribution study in CT26 tumor-bearing mice
Assay type: in vivo, Balb/c mice
Conditions: Balb/c, mouse; 75 mg/kg PO; Spleen; read-out: Tmax (converted)
REPORTED PROPERTY: Tmax (min)
Give bare numbers, in min.

Tmax reading for C[C@@H]1COCCN1c1cc(C2([S@](C)(=N)=O)CC2)nc(-c2cc[nH]c3nccc2-3)n1 [AZD6738] : 15

###

Test: Extensive tissue distribution study in CT26 tumor-bearing mice
Assay type: in vivo, Balb/c mice
Conditions: Balb/c, mouse, tumor, oral, 75 mg/kg, 75 mg/kg PO; CT26 tumor; read-out: Tumor exposure relative to plasma
Procedure: Mice were injected subcutaneously on the right flank with 1x10^6 CT26 cells, a murine colorectal carcinoma cell line from BALB/c mice,obtained from ATCC (Manassas, VA). […] Implantation and tumor growth were monitored twice weekly with a digital caliper. […] For tissue and tumor analysis, samples were homogenized with 3 parts PBS (v/g) and further diluted with control plasma and concentrations determined from calibration curves prepared in control plasma.
REPORTED PROPERTY: Kp

Kp reading for C[C@@H]1COCCN1c1cc(C2([S@](C)(=N)=O)CC2)nc(-c2cc[nH]c3nccc2-3)n1 [AZD6738] : ~0.75

###

Assay: Extensive tissue distribution study in CT26 tumor-bearing mice
Format: in vivo, Balb/c mice
Conditions: Balb/c, mouse; 75 mg/kg PO; Spleen
REPORTED PROPERTY: AUC(0-inf) (ng·h/mL)
Give bare numbers, in ng·h/mL.

AUC(0-inf) reading for C[C@@H]1COCCN1c1cc(C2([S@](C)(=N)=O)CC2)nc(-c2cc[nH]c3nccc2-3)n1 : 35200

###

Assay: Extensive tissue distribution study in CT26 tumor-bearing mice
Assay type: in vivo, Balb/c mice
Settings: Balb/c, mouse; 75 mg/kg PO; Heart; read-out: Tmax (converted)
REPORTED PROPERTY: Tmax (min)
Answers are plain numbers, in min.

Tmax reading for C[C@@H]1COCCN1c1cc(C2([S@](C)(=N)=O)CC2)nc(-c2cc[nH]c3nccc2-3)n1 : 15

###

Assay: in vivo
Conditions: Balb/c, mouse, iv, 10 mg/kg
REPORTED PROPERTY: CL renal (mL/min/kg)
Give bare numbers, in mL/min/kg.

CL renal reading for C[C@@H]1COCCN1c1cc(C2([S@](C)(=N)=O)CC2)nc(-c2cc[nH]c3nccc2-3)n1 : 0.661

###

Experiment: Extensive tissue distribution study in CT26 tumor-bearing mice
Assay type: in vivo, Balb/c mice
Conditions: Balb/c, mouse; 75 mg/kg PO; Spinal Cord; read-out: Tmax (converted)
REPORTED PROPERTY: Tmax (min)
One number for each entry, in min.

Tmax reading for C[C@@H]1COCCN1c1cc(C2([S@](C)(=N)=O)CC2)nc(-c2cc[nH]c3nccc2-3)n1 [AZD6738] : 15
